These measurements were taken from patent EP2957607B1.

Experiment: pKa value (acid dissociation constant) of the adsorption inhibitor
Format: physicochemical
Endpoint name: pKa

Query: pKa; subject: O=C(O)CC(O)C(=O)O (stereo not shown) < 5.5
